Value Type: melting point

The examples below pair each entry with its known result.
Compound | Value Observed
c1ccc2c(c1)CCN(Cc1cc3ccccc3[nH]1)C2 | 129 to 131 °C
CC=CCn1c(C)c(C)c2cnnc(OCc3c(Cl)cccc3Cl)c21 | 133 to 140 °C
CCCCCCCc1noc(-c2ncn3c2CN(C)C(=O)c2c(Cl)cccc2-3)n1 | 108 to 110 °C
O=C(Cn1c(-c2ccccc2)ncc(NS(=O)(=O)c2ccccc2)c1=O)NC(Cc1ccccc1)C(=O)C(F)(F)F (centres undefined) | 92 to 94 °C
CC(C)C1NC(=O)CN1C(=O)C(Cl)Cl (centres undefined) | 172 to 173 °C

Requested read-out: melting point. Entry: `NC(=O)N1C(=O)C(=C(OCOC(=O)COCC(=O)OCc2ccccc2)c2cccs2)c2cc(F)c(Cl)cc21` 122 °C

Requested read-out: melting point. Entry: `O=C(C[C@@H]1COCCO1)N[C@H]1CC[C@H](CCN2CCC(c3cccc4c3CCO4)CC2)CC1` 190 °C

Requested read-out: melting point. Entry: `C=C(F)Cc1ccc(OC)cc1OCc1ccccc1` 77 to 78 °C

Requested read-out: melting point. Entry: O=C(c1ccccc1)c1nc(Br)c2n1CCC2C(=O)O (centres undefined) 190 to 192 °C
